- Tested on: Balamuthia mandrillaris (ATCC PRA-291) trophozoites, axenic culture
- PROTOCOL_DESCRIPTION: primary screen, percent inhibition; higher = more effect of the substance;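 also: 0% = vehicle wells and 100% = lysate wells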
- ASSAY_CONDITIONS: 20 µM
Hit rate of the full screen: of about 2,000 compounds, about 15 (0.8%) showed an effect of 50% or more. The entries come from a sample that favours strong results as a whole.
Think of 20% as a floor: if % Inhibition stands on it or above, it is met; beneath it, not met.

Worked set:
INSERT INTO results (molecule, qualitative_label) VALUES
  ('CCCc1nc(C(C)(C)O)c(C(=O)O)n1Cc1ccc(-c2ccccc2-c2nn[nH]n2)cc1', 'met'),
  ('Clc1ccccc1CN1CCc2sccc2C1', 'met'),
  ('Cc1cc2c(cc1S(N)(=O)=O)S(=O)(=O)CCC2', 'met'),
  ('C[C@]12CCC3c4ccc(O)cc4CCC3C1CCC2=O (stereo partly drawn)', 'not met'),
  ('CC(=O)OCC(=O)[C@@]12OC(C)(C)O[C@@H]1C[C@H]1[C@@H]3C[C@H](F)C4=CC(=O)C=C[C@]4(C)[C@@]3(F)[C@@H](O)C[C@@]12C', 'not met');

Task: Hi, just wondering whether Cc1c(N(C)C)c(=O)n(-c2ccccc2)n1C shows % Inhibition of 20% or higher.
Output: met

Task: Hi, just wondering whether Cc1c(NC(C)C)c(=O)n(-c2ccccc2)n1C shows % Inhibition of 20% or higher.
Output: not met

Task: Hi, just wondering whether CO[C@@H]1[C@@H](OC(N)=O)[C@@H](O)[C@H](Oc2ccc3c(O)c(NC(=O)c4ccc(O)c(CC=C(C)C)c4)c(=O)oc3c2C)OC1(C)C shows % Inhibition of 20% or higher.
Output: not met

###

- System: Balamuthia mandrillaris (ATCC PRA-291) trophozoites, axenic culture
- PROTOCOL_DESCRIPTION: primary screen, percent inhibition; higher = more effect of the substance;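 also: 0% = vehicle wells and 100% = lysate wells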
- ASSAY_CONDITIONS: 20 µM
- Experimental: Screening of a clinically approved library of compounds, compiled by the Small Molecule Discovery Center (SMDC) at the UCSF, was completed at 20 µM in 0.2% DMSO. […] The luminescence was measured with a Promega GloMax-Multi+ plate reader at 2, 4, and 8 h after CTG addition. […] The B-score, representing a plate-based statistical approach for correcting row, column, and edge effects, was also calculated for each compound in the library (75).
The campaign covered roughly 2,000 compounds. About 15 (0.8%) showed an effect of 50% or more. Shown is part of a subset that was picked to be rich in strong results.
Think of 30% as a floor: if % Inhibition stands on it or above, it is condition met; beneath it, condition not met.

Worked set:
INSERT INTO results (molecule, qualitative_label) VALUES
  ('Cc1ccc(S(=O)(=O)NC(=O)NN2CCCCCC2)cc1', 'condition met'),
  ('CCC1(CC)C(=O)C=CNC1=O', 'condition not met');

Task: Hi, just wondering whether C[N+]1(C)[C@H]2CC(OC(=O)[C@H](CO)c3ccccc3)C[C@H]1C1OC12 (stereo partly shown) shows % Inhibition of 30% or higher.
Output: condition not met

Task: Hi, just wondering whether CCC(=O)OCC(=O)[C@@]1(OC(=O)CC)[C@H](C)CC2C3C([C@@H](O)C[C@@]21C)[C@@]1(C)C=CC(=O)C=C1C[C@H]3Cl (stereo partly shown) shows % Inhibition of 30% or higher.
Output: condition not met

Task: Hi, just wondering whether Cc1cc(N)c2ccccc2[n+]1CCCCCCCCCC[n+]1c(C)cc(N)c2ccccc21 shows % Inhibition of 30% or higher.
Output: condition met

Task: Hi, just wondering whether CN1[C@@H]2C[C@@H](OC(=O)[C@H](CO)c3ccccc3)C[C@H]1[C@@H]1O[C@@H]12 shows % Inhibition of 30% or higher.
Output: condition not met
